These measurements were taken from paper PMC3402541.

Tested on: K.pneumoniae ATCC 13883
Assay type: cell-based, Klebsiella pneumoniae
condition_set: ATCC 13883, 24 h
Where a SMILES comes first, the peptide text is derived from it. [ ]: non-standard residue; d: D form. The star is where a group is joined. Undecanoyl = CCCCCCCCCCC(=O)*; Nlys = NCCCCNCC(=O)O
quantity_kind: MIC K.pneumoniae

Exam item: Report MIC K.pneumoniae from K.pneumoniae ATCC 13883 testing of CCCCCCCCCCC(=O)N(CCCCNC(=N)N)CC(=O)N(CCCCNC(=N)N)CC(=O)N(CCCCNC(=N)N)CC(N)=O
Marked response: >512 µg/mL

Exam item: Report MIC K.pneumoniae from K.pneumoniae ATCC 13883 testing of CCCCCCCCCCC(=O)N(CCCCN)CC(=O)N(CCCCN)CC(=O)N(CCCCN)CC(N)=O
Marked response: >512 µg/mL

Exam item: Report MIC K.pneumoniae from K.pneumoniae ATCC 13883 testing of CCCCCCCCCCC(=O)N(CCCCN)CC(=O)NCC(=O)N(CCCCN)CC(N)=O [C11-NlysGNlys] (Undecanoyl-[Nlys]-Gly-[Nlys]-NH2)
Marked response: >512 µg/mL
